pKi: −log10 of the molar value.
As an illustration, consider measured pKi for molecules on human histamine H3 receptor (Homo sapiens, UniProt Q9Y5N1).
Sequence (Q9Y5N1 whole entry): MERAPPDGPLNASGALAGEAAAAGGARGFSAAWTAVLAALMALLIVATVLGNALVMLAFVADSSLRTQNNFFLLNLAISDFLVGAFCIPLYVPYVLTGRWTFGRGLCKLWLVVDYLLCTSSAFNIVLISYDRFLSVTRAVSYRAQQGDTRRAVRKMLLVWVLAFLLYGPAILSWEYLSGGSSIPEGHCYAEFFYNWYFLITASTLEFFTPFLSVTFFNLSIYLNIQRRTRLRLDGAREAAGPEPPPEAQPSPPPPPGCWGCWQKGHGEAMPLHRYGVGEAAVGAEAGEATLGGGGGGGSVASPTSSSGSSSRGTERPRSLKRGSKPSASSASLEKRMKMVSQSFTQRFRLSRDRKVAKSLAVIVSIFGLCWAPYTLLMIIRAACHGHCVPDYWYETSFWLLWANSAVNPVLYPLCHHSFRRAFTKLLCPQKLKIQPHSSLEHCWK
property_measured: pKi

1) CC(C)N1CCN(C(=O)c2ccc(NCCN3CCCCC3)nc2)CC1 :: 8.70
2) C(#Cc1cccc(CN2CCCCC2)n1)CCN1CCCCC1 :: 8.10
3) CC(C)N1CCN(C(=O)c2ccnc(NCCN3CCCCC3)c2)CC1 :: 8.22
4) C(#Cc1cccc(CN2CCOCC2)n1)CCN1CCCCC1 :: 7.42
5) CCN(CC)CCN(C)c1ccc(C(=O)N2CCN(C(C)C)CC2)cn1 :: 8.52
6) COCCNCc1cccc(C#CCCN2CCCCC2)n1 :: 7.54
